Reference source: ChEMBL document CHEMBL1909046

assay: DRUGMATRIX: Glutamate, NMDA, Phencyclidine radioligand binding (ligand: [3H] TCP); format: cell membranes, Rattus norvegicus, Wistar, Cerebral cortex, Membrane; details: Not Active = under 50% inhibition at 10 µM
EXPERIMENTAL_READOUT: IC50

compound=[H]/N=C(/N)N[C@H]1[C@H](O)[C@@H](O)[C@H](O[C@@H]2O[C@@H](C)[C@](O)(C=O)[C@H]2O[C@@H]2O[C@@H](CO)[C@H](O)[C@@H](O)[C@@H]2NC)[C@@H](N/C(N)=N\[H])[C@@H]1O experimental_readout=IC50 reported="Not Active"
compound="COC(=O)C1=C(C)NC(C)=C(C(=O)OCC(C)C)C1c1ccccc1[N+](=O)[O-] (stereo not given)" experimental_readout=IC50 reported="Not Active"
compound=O=NN(CCCl)C(=O)NCCCl experimental_readout=IC50 reported="Not Active"
compound=C[C@H]1C[C@H]2[C@@H]3CCC4=CC(=O)C=C[C@]4(C)[C@@]3(Cl)[C@@H](O)C[C@]2(C)[C@@]1(O)C(=O)CO experimental_readout=IC50 reported="Not Active"
compound="COc1cccc2c1C(=O)c1c(O)c3c(c(O)c1C2=O)C[C@@](O)(C(=O)CO)C[C@@H]3O[C@H]1C[C@H](N)[C@@H](O)[C@H](C)O1 [EPIRUBICIN]" experimental_readout=IC50 reported="Not Active"
compound="CN1C(=O)COc2c(C(=O)NC3CN4CCC3CC4)cc(Cl)cc21 (stereo not given)" experimental_readout=IC50 reported="Not Active"
compound="COCCOC(=O)C1=C(C)NC(C)=C(C(=O)OC(C)C)C1c1cccc([N+](=O)[O-])c1 (stereo not given)" experimental_readout=IC50 reported="Not Active"
compound="ClC(Cl)Cl [CHLOROFORM]" experimental_readout=IC50 reported="Not Active"
compound=C[C@@H](N)[C@H]1CC[C@H](C(=O)Nc2ccncc2)CC1 experimental_readout=IC50 reported="Not Active"
compound=CO[C@H]1/C=C/O[C@@]2(C)Oc3c(C)c(O)c4c(c3C2=O)C2=NC3(CCN(CC(C)C)CC3)NC2=C(NC(=O)/C(C)=C\C=C\[C@H](C)[C@H](O)[C@@H](C)[C@@H](O)[C@@H](C)[C@H](OC(C)=O)[C@@H]1C)C4=O experimental_readout=IC50 reported="Not Active"
compound=C#C[C@]1(O)CC[C@H]2[C@@H]3CCc4cc(OC)ccc4[C@H]3CC[C@@]21C experimental_readout=IC50 reported="Not Active"
compound="CC1(C)O[C@@H]2C[C@H]3[C@@H]4C[C@H](F)C5=CC(=O)C=C[C@]5(C)[C@@]4(F)[C@@H](O)C[C@]3(C)[C@]2(C(=O)CO)O1 [FLUOCINOLONE ACETONIDE]" experimental_readout=IC50 reported="Not Active"
compound=O=c1ccc2ccccc2o1 experimental_readout=IC50 reported="Not Active"
compound=Nc1c(CC(=O)O)cccc1C(=O)c1ccc(Br)cc1 experimental_readout=IC50 reported="Not Active"
compound=O=S(=O)([O-])CCS.[Na+] experimental_readout=IC50 reported="Not Active"
compound=COc1ccc2cc([C@H](C)C(=O)O)ccc2c1 experimental_readout=IC50 reported="Not Active"
compound=COc1cc2c(c3oc(=O)c4c(c13)CCC4=O)[C@@H]1C=CO[C@@H]1O2 experimental_readout=IC50 reported="Not Active"
compound="COc1ccc2[nH]c([S+]([O-])Cc3ncc(C)c(OC)c3C)nc2c1 (stereo not given)" experimental_readout=IC50 reported="Not Active"
compound="CCCN(CCC)C(=O)C(CCC(=O)O)NC(=O)c1ccccc1 (stereo not given) [PROGLUMIDE]" experimental_readout=IC50 reported="Not Active"
compound=O=C(c1ccc(OCCN2CCCCC2)cc1)c1c(-c2ccc(O)cc2)sc2cc(O)ccc12 experimental_readout=IC50 reported="Not Active"
compound=CCC1=C[C@@H]2CN(C1)Cc1c([nH]c3ccccc13)[C@@](C(=O)OC)(c1cc3c(cc1OC)N(C)[C@H]1[C@@](O)(C(=O)OC)[C@H](OC(C)=O)[C@]4(CC)C=CCN5CC[C@]31[C@@H]54)C2 experimental_readout=IC50 reported="Not Active"
compound=Oc1ccc(OCc2ccccc2)cc1 experimental_readout=IC50 reported="Not Active"
compound="CCOC(=O)C(C)(C)Oc1ccc(Cl)cc1 [CLOFIBRATE]" experimental_readout=IC50 reported="Not Active"
compound=C[C@]1(Cn2ccnn2)[C@H](C(=O)O)N2C(=O)C[C@H]2S1(=O)=O experimental_readout=IC50 reported="Not Active"
compound=O=C(N[C@H](CO)[C@H](O)c1ccc([N+](=O)[O-])cc1)C(Cl)Cl experimental_readout=IC50 reported="Not Active"
compound="O=C(C1CCCCC1)N1CC(=O)N2CCc3ccccc3C2C1 (stereo not given)" experimental_readout=IC50 reported="Not Active"
compound=Cc1cc2cc3c(C)cc(=O)oc3c(C)c2o1 experimental_readout=IC50 reported="Not Active"
compound="Cc1nccn1CC1CCc2c(c3ccccc3n2C)C1=O (stereo not given)" experimental_readout=IC50 reported="Not Active"
compound="C[C@](O)(CS(=O)(=O)c1ccc(F)cc1)C(=O)Nc1ccc(C#N)c(C(F)(F)F)c1 [(R)-BICALUTAMIDE]" experimental_readout=IC50 reported="Not Active"
compound=C[C@H]1O[C@@H](O[C@H]2[C@@H](O)C[C@H](O[C@H]3[C@@H](O)C[C@H](O[C@H]4CC[C@@]5(C)[C@H](CC[C@@H]6[C@@H]5CC[C@]5(C)[C@@H](C7=CC(=O)OC7)CC[C@]65O)C4)O[C@@H]3C)O[C@@H]2C)C[C@H](O)[C@@H]1O experimental_readout=IC50 reported="Not Active"
